assay: AUC (infinity) in rat at 10 mg/kg, po and 2 mg/kg, iv; format: ADME, organism-based; conditions: plasma
Mark yes for reported AUC(0-inf) of 300 ng·h/mL or greater; mark no for anything smaller.

## Task Does the molecule COCCCOc1cc(C[C@@H](C[C@H](N)[C@@H](O)C[C@H](C(=O)NCC(C)(C)C(N)=O)C(C)C)C(C)C)ccc1OC.COCCCOc1cc(C[C@@H](C[C@H](N)[C@@H](O)C[C@H](C(=O)NCC(C)(C)C(N)=O)C(C)C)C(C)C)ccc1OC.O=C(O)/C=C/C(=O)O [ALISKIREN FUMARATE] have recorded AUC(0-inf) that is 300 ng·h/mL or more?
## Result no

## Task And then COCCCC[C@@](O)(c1ccccc1)[C@@H]1CCCN(C(=O)N[C@H](CN)CC2CCCCC2)C1.O=C(O)/C=C/C(=O)O , what is it?
## Result no

## Task And then CNC[C@H](CC1CCCCC1)NC(=O)N1CCC[C@@H]([C@@](O)(CCCCOC)c2cccc(F)c2)C1.O=C(O)/C=C/C(=O)O , what is it?
## Result yes

## Task And then CNC[C@H](CC1CCCCC1)NC(=O)N1CCC[C@@H]([C@@](O)(CCCCOC)c2ccccc2)C1.O=C(O)/C=C/C(=O)O , what is it?
## Result yes

## Task And then CCOCCCO[C@@H](c1ccccc1)[C@@H]1CCCN(C(=O)N[C@H](CNC)CC2CCCCC2)C1.O=C(O)/C=C/C(=O)O , what is it?
## Result yes

## Task And then CCOCCCC[C@@](O)(c1ccccc1)[C@@H]1CCCN(C(=O)N[C@H](CNC)CC2CCCCC2)C1.O=C(O)/C=C/C(=O)O , what is it?
## Result yes

## Task And then CNC[C@H](CC1CCCCC1)NC(=O)N1CCC[C@@H]([C@@](O)(CCCCOC)c2cccc(Cl)c2F)C1.O=C(O)/C=C/C(=O)O , what is it?
## Result no

## Task And then CNC[C@H](CC1CCCCC1)NC(=O)N1CCC[C@@H]([C@@](O)(CCCCOC)c2cccc(Cl)c2)C1.O=C(O)/C=C/C(=O)O , what is it?
## Result yes

====

test: Solubility in water; format: physicochemical
Readout Name: solubility

## Task Item under review: CNC[C@H](CC1CCCCC1)NC(=O)N1CCC[C@@H]([C@@](O)(CCCCOC)c2cccc(Cl)c2)C1.O=C(O)/C=C/C(=O)O . Reported solubility?
## Result > 1000 µg/mL

====

test system: Macaca fascicularis; test: Oral bioavailability in cynomolgus monkey; conditions: in vivo
Readout Name: bioavailability (%)
# value in %; strip the unit string

## Task Item under review: CNC[C@H](CC1CCCCC1)NC(=O)N1CCC[C@@H]([C@@](O)(CCCCOC)c2cccc(Cl)c2)C1.O=C(O)/C=C/C(=O)O . Reported bioavailability?
## Result 17

====

Assign bioavailability to each entry below.
test: Oral bioavailability in rat at 10 mg/kg; assay type: ADME, organism-based; settings: in vivo
# value in %; strip the unit string

## Task Item under review: CNC[C@H](CC1CCCCC1)NC(=O)N1CCC[C@@H]([C@@](O)(CCCCOC)c2cccc(Cl)c2F)C1.O=C(O)/C=C/C(=O)O . Reported bioavailability?
## Result 5.5

## Task And then COCCCC[C@@](O)(c1ccccc1)[C@@H]1CCCN(C(=O)N[C@H](CN)CC2CCCCC2)C1.O=C(O)/C=C/C(=O)O , what is it?
## Result 7.5

## Task And then CNC[C@H](CC1CCCCC1)NC(=O)N1CCC[C@@H]([C@@](O)(CCCCOC)c2cccc(F)c2)C1.O=C(O)/C=C/C(=O)O , what is it?
## Result 21.1

## Task And then CCOCCCO[C@@H](c1ccccc1)[C@@H]1CCCN(C(=O)N[C@H](CNC)CC2CCCCC2)C1.O=C(O)/C=C/C(=O)O , what is it?
## Result 35.8
